Molecular target: Hsp27 alpha-crystallin domain (ACD, residues Q80–S176) (human, UniProt P04792 80-176)
Sequence (P04792 80-176): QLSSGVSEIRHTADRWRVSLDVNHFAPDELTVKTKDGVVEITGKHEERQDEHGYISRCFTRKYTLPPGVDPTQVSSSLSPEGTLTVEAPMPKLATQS
Test: ITC
VALUE TYPE: pKd
Schema: pKd number; meaning minus log10 of the concentration expressed in molar units.

Query string: Dear colleague, I am looking for the recorded pKd of the following binder: EITAPVTHE (EITAPVTHE. The paper numbers the peptide from E176, so printed Ile179 (I of IPV) is UniProt I181. Peptide termini chemistry is not stated.) [Hsp27 IPV H peptide with Ile179 mutated to alanine]
Result string: 4.90

Query string: Dear colleague, I am looking for the recorded pKd of the following binder: EITIAVTHE [Hsp27 IPV H peptide with the second X residue (Pro) of IXIXV mutated to alanine (EITIAVTHE)]
Result string: 5.37

Query string: Dear colleague, I am looking for the recorded pKd of the following binder: EITIPVAHE (synthetic 9-mer; alanine-scan variant of the His-containing IPV peptide … (gives EITIPVAHE). The T184 label fits UniProt numbering, not the shifted numbering printed in the text. Termini not stated) [T184A]
Result string: 5.03
